# TEST: Acid selection: salt formation of compound 1 with acids
# Format: physicochemical
# RUN_CONDITIONS: Solvent EtOH
PARAMETER_MEASURED: Result (salt formation with compound 1)

O=S(=O)(O)O [Sulfuric]
Decomposition
Br [Hydrobromic]
Decomposition
O=[N+]([O-])O [Nitric]
Decomposition
